- Target or test system: KAT-8 (Homo sapiens (Human), UniProt Q9H7Z6)
- Sequence (Q9H7Z6 other isoform, or with tags, fused parts or gaps): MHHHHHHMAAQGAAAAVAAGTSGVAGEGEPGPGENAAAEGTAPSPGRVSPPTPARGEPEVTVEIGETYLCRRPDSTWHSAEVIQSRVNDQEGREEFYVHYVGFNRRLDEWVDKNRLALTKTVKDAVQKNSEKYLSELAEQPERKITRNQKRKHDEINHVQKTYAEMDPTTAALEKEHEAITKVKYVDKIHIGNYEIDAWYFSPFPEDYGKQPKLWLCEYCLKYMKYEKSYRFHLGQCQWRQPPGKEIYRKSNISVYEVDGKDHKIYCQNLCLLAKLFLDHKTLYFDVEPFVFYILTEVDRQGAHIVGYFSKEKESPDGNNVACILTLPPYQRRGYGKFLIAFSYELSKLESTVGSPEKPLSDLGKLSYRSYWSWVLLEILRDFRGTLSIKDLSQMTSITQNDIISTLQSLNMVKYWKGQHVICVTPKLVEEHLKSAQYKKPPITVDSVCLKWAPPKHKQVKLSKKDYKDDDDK
- Assay comment: KAT-8 biochemical inhibition assay (SAMDI mass spectrometry)
pIC50: −log10 of the molar value.
Recorded metric: pIC50

> print(dat)
                                    molecule  value.observed
 1  CC(C)C(=O)N[C@H]1CC[C@H](CS(=O)(=O)NNC(=O)c2cc(-c3cn(C)cn3)cc(Cl)c2F)CC1 [Compound I-201]    4.30 to 5.00
 2  Cc1cc(-c2cn(C)cn2)cc(C(=O)NNS(=O)(=O)CC2CCCCC2)c1F [Compound I-129]          < 4.00
 3  Cn1cnc(-c2cc(Cl)c(F)c(C(=O)NNS(=O)(=O)c3cnn(C)n3)c2)c1 [Compound I-72]    4.30 to 5.00
 4  Cn1cnc(-c2cc(Cl)c(F)c(C(=O)NNS(=O)(=O)C[C@H]3CC[C@H](NC(=O)Cc4cccnc4)CC3)c2)c1 [Compound I-258]    4.30 to 5.00
 5  Cc1cn(-c2cc(Cl)c(F)c(C(=O)NNS(=O)(=O)CC3CCOCC3)c2)cn1 [Compound I-49]          < 4.00
 6  Cn1cnc(-c2cc(Cl)c(F)c(C(=O)NNS(=O)(=O)CC3CCC3)c2)c1 [Compound I-31]    4.30 to 5.00
 7  Cn1cnc(-c2cc(Cl)c(F)c(C(=O)NNS(=O)(=O)C[C@H]3CC[C@H](NC(N)=O)CC3)c2)c1 [Compound I-194]    4.30 to 5.00
 8  Cn1cnc(-c2cc(Cl)c(F)c(C(=O)NNS(=O)(=O)C[C@@H]3CCN(C(=O)OC(C)(C)C)C3)c2)c1 [Compound I-117]    4.30 to 5.00
 9  COC1CCCC(CS(=O)(=O)NNC(=O)c2cc(-c3cn(C)cn3)cc(Cl)c2F)C1 (stereo not drawn) [Compound I-270]    4.30 to 5.00
10  CN[C@H]1CC[C@@H](CS(=O)(=O)NNC(=O)c2cc(-c3cn(C)cn3)cc(Cl)c2F)CC1 [Compound I-364]    4.30 to 5.00
11  CCS(=O)(=O)N1CCC(CS(=O)(=O)NNC(=O)c2cc(-c3cn(C)cn3)cc(Cl)c2F)C1 (stereo not drawn) [Compound I-75]    4.30 to 5.00
12  Cn1cnc(-c2ccc(F)c(C(=O)NNS(=O)(=O)C[C@H]3CCC[C@H](O)C3)c2)c1 [Compound I-305]    4.30 to 5.00
13  Cn1cnc(-c2cc(Cl)c(F)c(C(=O)NNS(=O)(=O)C[C@H]3CC[C@H](NC(=O)c4ccncc4)CC3)c2)c1 [Compound I-269]    4.30 to 5.00
14  Cn1cnc(-c2cc(Cl)c(F)c(C(=O)NNS(C)(=O)=O)c2)c1 [Compound I-22]          < 4.00
15  Cn1cnc(-c2cc(Cl)c(F)c(C(=O)NNS(=O)(=O)CC3CCCC(NC(=O)Cc4cccnc4)C3)c2)c1 (stereo not drawn) [Compound I-243]    4.30 to 5.00
